ASSAY TARGET: IGF-1R Ba/F3 (Homo sapiens)
Construct: fused on or other part: TEL- (or BCR-) IGF-1R in Ba/F3: the kinase part holds the site
Sequence (P08069 999-1274 limits assumed): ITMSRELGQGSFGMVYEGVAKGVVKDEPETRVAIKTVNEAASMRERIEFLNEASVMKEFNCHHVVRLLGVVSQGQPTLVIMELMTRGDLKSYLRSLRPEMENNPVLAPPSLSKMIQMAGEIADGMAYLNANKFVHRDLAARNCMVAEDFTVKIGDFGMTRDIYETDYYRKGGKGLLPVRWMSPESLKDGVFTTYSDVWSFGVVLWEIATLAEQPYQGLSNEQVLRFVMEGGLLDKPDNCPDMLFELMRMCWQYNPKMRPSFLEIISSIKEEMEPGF
ASSAY DETAILS: Ba/F3 Cell Viability Inhibition Assay (IGF-1R Ba/F3)
MEASUREMENT CONTEXT: Tel-TK transformed Ba/F3 cells, 48 hours, Britelite luminescence
ASSAY METRIC: IC50 (nM)
Express your answer in nM, writing the number without its unit.

# example entries with known answers
>>> reading("Cc1cc(Nc2nc(Nc3cc(C)c(C4CCN(CCCS(=O)(=O)N5CCCC5)CC4)cc3F)ncc2Cl)n[nH]1 [Compound 244]")
84
>>> reading("Cc1cc(Nc2nc(Nc3cc(C)c(C4CCN(Cc5nc(C(C)C)no5)CC4)cc3F)ncc2Cl)n[nH]1 [Compound 259]")
64
>>> reading("Cc1cc(Nc2nc(Nc3cc(C)c(C4CCN(Cc5c(C)noc5C)CC4)cc3F)ncc2Cl)n[nH]1 [Compound 19]")
56
>>> reading("Cc1cc(Nc2nc(Nc3cc(C)c(C4CCN([C@H](C)C(N)=O)CC4)cc3C)ncc2Cl)n[nH]1 [Compound 167]")
6
>>> reading("Cc1cc(Nc2nc(Nc3cc(C)c(C4CCN(CC(N)=O)CC4)cc3F)ncc2Cl)n[nH]1 [Compound 39]")
19

Could you now look at the following compound, please?
// lookup IC50 for CCOC(=O)N1CCC(c2cc(C)c(Nc3ncc(Cl)c(Nc4cc(C)[nH]n4)n3)cc2Cl)CC1 [Compound 67] 182
